procedure_text: self-splicing fitness, log relative to wild type (ln ratio); higher = more splicing; Tetrahymena group I intron in knt gene, E. coli kanamycin selection, DiMSum; sequences stand for … in CUCUCU…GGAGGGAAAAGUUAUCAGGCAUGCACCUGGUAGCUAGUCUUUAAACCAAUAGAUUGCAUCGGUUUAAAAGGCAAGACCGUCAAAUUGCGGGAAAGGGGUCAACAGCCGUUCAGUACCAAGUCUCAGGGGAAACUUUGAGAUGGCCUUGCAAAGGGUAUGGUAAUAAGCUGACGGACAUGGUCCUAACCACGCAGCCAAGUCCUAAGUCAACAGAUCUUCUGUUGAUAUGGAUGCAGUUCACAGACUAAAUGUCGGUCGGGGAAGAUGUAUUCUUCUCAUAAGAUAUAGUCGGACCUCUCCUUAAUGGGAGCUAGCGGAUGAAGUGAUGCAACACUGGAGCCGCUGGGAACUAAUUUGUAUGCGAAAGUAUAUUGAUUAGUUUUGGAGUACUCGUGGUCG;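 also: selection with 25 µg/mL kanamycin versus none on LB agar overnight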
applied_conditions: 30 °C
observable: self-splicing fitness (ln)
Returns: the value as a bare number; no unit string appended.

Here is how some sequences turned out for self-splicing fitness (ln).
[
  {
    "sequence_entry": "AGAAAGCAAUAUUACGUGGC",
    "self-splicing fitness (ln)": -3.67
  },
  {
    "sequence_entry": "AGGCAGCAAUAUUACGCGGG",
    "self-splicing fitness (ln)": -2.65
  },
  {
    "sequence_entry": "UUGCAGCAAUAUUACGCGCA",
    "self-splicing fitness (ln)": -1.84
  }
]

// lookup self-splicing fitness (ln) for GACCAGCAAUAUUACGCAUA
-0.474

----------
procedure_text: self-splicing fitness, log relative to wild type (ln ratio); higher = more splicing; Tetrahymena group I intron in knt gene, E. coli kanamycin selection, DiMSum; sequences stand for … in CUCUCU…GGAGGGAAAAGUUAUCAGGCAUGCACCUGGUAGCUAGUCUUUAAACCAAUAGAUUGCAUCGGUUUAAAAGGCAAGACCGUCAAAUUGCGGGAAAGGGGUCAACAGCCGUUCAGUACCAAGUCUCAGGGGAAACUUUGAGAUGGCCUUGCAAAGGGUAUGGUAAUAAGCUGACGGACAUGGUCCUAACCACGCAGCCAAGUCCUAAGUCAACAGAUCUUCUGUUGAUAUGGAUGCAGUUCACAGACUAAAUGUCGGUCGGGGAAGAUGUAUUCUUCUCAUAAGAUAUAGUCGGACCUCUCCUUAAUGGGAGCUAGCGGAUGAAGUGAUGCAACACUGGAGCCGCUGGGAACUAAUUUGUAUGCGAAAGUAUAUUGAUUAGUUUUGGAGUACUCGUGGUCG
applied_conditions: 30 °C
observable: self-splicing fitness (ln)

[
  {
    "sequence_entry": "ACUAAGCAAUAUUACGGUAU",
    "self-splicing fitness (ln)": -3.24
  },
  {
    "sequence_entry": "GAGCAGCAAUAUUACGAUUG",
    "self-splicing fitness (ln)": -2.17
  }
]

// returns reported self-splicing fitness (ln) for input GAUAAGCAAUAUUACGGCGA
-0.337

Same again, this time with CGAAAGCAAUAUUACGAACU
-1.25

Would you kindly repeat that for AUACAGCAAUAUUACGAUCG ?
-0.733

Same thing, different sequence: ACACAGCAAUAUUACGCUUU
-2.75

----------
procedure_text: self-splicing fitness, log relative to wild type (ln ratio); higher = more splicing; Tetrahymena group I intron in knt gene, E. coli kanamycin selection, DiMSum; sequences stand for … in CUCUCU…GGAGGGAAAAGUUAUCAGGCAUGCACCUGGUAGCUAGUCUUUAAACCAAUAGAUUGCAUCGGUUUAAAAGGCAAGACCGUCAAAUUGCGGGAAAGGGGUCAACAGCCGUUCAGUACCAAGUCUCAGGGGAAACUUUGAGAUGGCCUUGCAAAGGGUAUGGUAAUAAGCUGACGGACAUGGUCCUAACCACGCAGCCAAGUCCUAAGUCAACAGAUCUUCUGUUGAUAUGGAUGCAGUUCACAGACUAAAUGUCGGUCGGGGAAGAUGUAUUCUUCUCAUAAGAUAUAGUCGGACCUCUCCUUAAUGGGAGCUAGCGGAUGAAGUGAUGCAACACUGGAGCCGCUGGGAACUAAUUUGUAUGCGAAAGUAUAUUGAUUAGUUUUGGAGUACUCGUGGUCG
applied_conditions: 30 °C
self-splicing fitness (ln) vs -1: at or above is fulfilled, below is not fulfilled.

[
  {
    "sequence_entry": "UGCCAGCAAUAUUACGCCCU",
    "assigned_category": "not fulfilled"
  }
]

Please tell me: is the sequence GACGAGCAAUAUUACGUUUA at or over -1 in terms of self-splicing fitness (ln)?
not fulfilled

Entry to check: CAGGAGCAAUAUUACGGCGG
fulfilled

Same question for CUACAGCAAUAUUACGAAGU please.
not fulfilled

Same question, GUAGAGCAAUAUUACGACAA this time
fulfilled

Moving on to the next sequence: CGCAAGCAAUAUUACGAUAA
not fulfilled

Follow-up entry: GACGAGCAAUAUUACGUGCC
not fulfilled

Entry to check: UUCGAGCAAUAUUACGGAAA
not fulfilled

Again, but for GGAAAGCAAUAUUACGAUGC
fulfilled

----------
procedure_text: self-splicing fitness, log relative to wild type (ln ratio); higher = more splicing; Tetrahymena group I intron in knt gene, E. coli kanamycin selection, DiMSum; sequences stand for … in CUCUCU…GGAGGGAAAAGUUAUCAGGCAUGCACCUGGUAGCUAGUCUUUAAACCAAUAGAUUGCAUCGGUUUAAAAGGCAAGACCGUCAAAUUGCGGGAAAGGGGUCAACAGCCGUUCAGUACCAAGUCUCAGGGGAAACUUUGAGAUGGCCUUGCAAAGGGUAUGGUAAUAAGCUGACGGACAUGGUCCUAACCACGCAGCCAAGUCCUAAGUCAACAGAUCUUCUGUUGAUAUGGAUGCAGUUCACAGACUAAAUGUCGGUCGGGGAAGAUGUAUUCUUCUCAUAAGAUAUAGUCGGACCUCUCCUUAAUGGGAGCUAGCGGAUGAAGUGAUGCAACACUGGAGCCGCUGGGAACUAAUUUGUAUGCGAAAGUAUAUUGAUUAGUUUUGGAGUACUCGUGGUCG
applied_conditions: 37 °C
Catalogue of self-splicing fitness (ln) values
Write no unit; give the number alone.

Example entries begin here.
[
  {
    "sequence_entry": "GCCAAGCAAUAUUACGCCCU",
    "observable": "self-splicing fitness (ln)",
    "val": -0.504
  },
  {
    "sequence_entry": "UUAAAGCAAUAUUACGUGCA",
    "observable": "self-splicing fitness (ln)",
    "val": 0.542
  },
  {
    "sequence_entry": "AAUGAGCAAUAUUACGAGGU",
    "observable": "self-splicing fitness (ln)",
    "val": -2.49
  },
  {
    "sequence_entry": "AGCUAGCAAUAUUACGAAGA",
    "observable": "self-splicing fitness (ln)",
    "val": -2.86
  },
  {
    "sequence_entry": "UCAAAGCAAUAUUACGGGAA",
    "observable": "self-splicing fitness (ln)",
    "val": -0.928
  },
  {
    "sequence_entry": "GUCCAGCAAUAUUACGGAGG",
    "observable": "self-splicing fitness (ln)",
    "val": -1.17
  },
  {
    "sequence_entry": "AAGUAGCAAUAUUACGACGC",
    "observable": "self-splicing fitness (ln)",
    "val": 0.204
  },
  {
    "sequence_entry": "CAGAAGCAAUAUUACGCGCC",
    "observable": "self-splicing fitness (ln)",
    "val": -1.34
  },
  {
    "sequence_entry": "ACCAAGCAAUAUUACGGCCG",
    "observable": "self-splicing fitness (ln)",
    "val": -0.259
  },
  {
    "sequence_entry": "GUACAGCAAUAUUACGUUCU",
    "observable": "self-splicing fitness (ln)",
    "val": -0.102
  }
]

Recorded self-splicing fitness (ln) for GGGCAGCAAUAUUACGGAAU , please?
-1.3

Ok, now CCUGAGCAAUAUUACGUCGG
-2.47

Can you handle CCCUAGCAAUAUUACGACUG next?
-2.92

Here is the next sequence: UGAGAGCAAUAUUACGCGGA
-1.49

Would you mind doing UGACAGCAAUAUUACGGAUA as well?
-0.669

Item: AACGAGCAAUAUUACGAGGA
-2.34

----------
procedure_text: self-splicing fitness, log relative to wild type (ln ratio); higher = more splicing; Tetrahymena group I intron in knt gene, E. coli kanamycin selection, DiMSum; sequences stand for … in CUCUCU…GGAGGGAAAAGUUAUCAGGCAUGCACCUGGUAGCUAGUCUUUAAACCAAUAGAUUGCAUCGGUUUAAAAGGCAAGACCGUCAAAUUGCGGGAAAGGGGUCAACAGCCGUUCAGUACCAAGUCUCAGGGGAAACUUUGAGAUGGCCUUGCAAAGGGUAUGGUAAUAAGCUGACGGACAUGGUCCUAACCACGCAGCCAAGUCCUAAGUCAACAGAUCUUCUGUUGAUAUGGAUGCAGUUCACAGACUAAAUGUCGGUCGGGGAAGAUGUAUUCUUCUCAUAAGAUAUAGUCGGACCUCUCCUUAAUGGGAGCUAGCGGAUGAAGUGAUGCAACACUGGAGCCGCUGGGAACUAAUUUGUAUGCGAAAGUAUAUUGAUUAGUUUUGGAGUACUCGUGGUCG
applied_conditions: 37 °C
Our labelling divides records by self-splicing fitness (ln) into ranges: bucket A (below -2), bucket B (-2 to below -0.9), bucket C (-0.9 or more)

Worked set:
[
  {
    "sequence_entry": "AUUCAGCAAUAUUACGAUGC",
    "assigned_category": "bucket C"
  },
  {
    "sequence_entry": "AUAGAGCAAUAUUACGGCCC",
    "assigned_category": "bucket C"
  },
  {
    "sequence_entry": "CCAUAGCAAUAUUACGAAAG",
    "assigned_category": "bucket C"
  }
]

Returns: class label. Input: AACAAGCAAUAUUACGUCAG
bucket A

Also, UUAGAGCAAUAUUACGUGUU please.
bucket A

Further, for UCGCAGCAAUAUUACGGAAC ?
bucket A

Also, CGCUAGCAAUAUUACGCAUG please.
bucket B

Here is the next sequence: AUUAAGCAAUAUUACGGUCG
bucket B

Let us now turn to AUAGAGCAAUAUUACGUCAG
bucket A

How about CUGAAGCAAUAUUACGAUAC ?
bucket B

Try this sequence next: UAAAAGCAAUAUUACGUAUC
bucket A

Would you kindly repeat that for AACGAGCAAUAUUACGUAAA ?
bucket A

Now the same for AAUAAGCAAUAUUACGCUGG
bucket B

Next sequence: AGCUAGCAAUAUUACGUUGA
bucket B

Proceed to ACGCAGCAAUAUUACGAGUA
bucket A

Same again, this time with AGCGAGCAAUAUUACGGUCC
bucket C

Input ACAAAGCAAUAUUACGGGUU
bucket B

How about this sequence: GCUGAGCAAUAUUACGGUGG
bucket A

Consider next the sequence UUUCAGCAAUAUUACGCUCA in the same way.
bucket C

Let us now turn to UACGAGCAAUAUUACGGUGC
bucket A

Note, next up: AAAGAGCAAUAUUACGUCCU
bucket C

Same read-out for CGUAAGCAAUAUUACGUCCU ?
bucket C
